These entries and their values trace back to patent US20240109974A1.

Item-by-item account of % Relative activity (WT antibody/test antibody)
# target-entity: T1, human TNFR2 on the surface of CHO-TNFR2 cells (human, UniProt P20333 23-461)
# T1 construct: whole, on cells
# T1 sequence (looked up): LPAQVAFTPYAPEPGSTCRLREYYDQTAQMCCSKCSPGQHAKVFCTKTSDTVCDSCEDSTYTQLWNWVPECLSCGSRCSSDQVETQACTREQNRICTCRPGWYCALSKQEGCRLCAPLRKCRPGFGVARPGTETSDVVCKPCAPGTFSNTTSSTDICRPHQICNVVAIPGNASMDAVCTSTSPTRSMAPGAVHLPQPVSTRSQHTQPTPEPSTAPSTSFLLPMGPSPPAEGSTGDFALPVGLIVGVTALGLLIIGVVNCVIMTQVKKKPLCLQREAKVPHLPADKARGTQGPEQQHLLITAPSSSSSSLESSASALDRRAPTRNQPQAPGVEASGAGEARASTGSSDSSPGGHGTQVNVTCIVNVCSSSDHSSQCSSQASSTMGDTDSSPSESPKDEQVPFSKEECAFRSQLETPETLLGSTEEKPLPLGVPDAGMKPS
# test-details: flow cytometry on CHO-TNFR2 cells; EC50 against 001-WT
Please respond with the number in % and leave the unit unwritten.

Entry under review: 001-Hu3 (antibody, V domains shown, Humanized form of #001; also called VH1 + VL3) VH: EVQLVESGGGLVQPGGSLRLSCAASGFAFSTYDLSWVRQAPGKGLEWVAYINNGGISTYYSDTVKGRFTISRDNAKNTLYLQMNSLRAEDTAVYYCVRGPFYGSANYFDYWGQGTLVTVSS VL: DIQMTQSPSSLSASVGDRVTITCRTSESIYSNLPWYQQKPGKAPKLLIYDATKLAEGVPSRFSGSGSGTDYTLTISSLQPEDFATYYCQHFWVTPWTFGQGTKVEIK . Reported % Relative activity (WT antibody/test antibody)?
101

Entry under review: 001-Hu4 (antibody, V domains shown, Humanized form of #001; also called VH2 + VL4) VH: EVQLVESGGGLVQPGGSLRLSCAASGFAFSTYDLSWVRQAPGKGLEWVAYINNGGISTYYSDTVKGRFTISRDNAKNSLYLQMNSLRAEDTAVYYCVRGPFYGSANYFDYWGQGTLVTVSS VL: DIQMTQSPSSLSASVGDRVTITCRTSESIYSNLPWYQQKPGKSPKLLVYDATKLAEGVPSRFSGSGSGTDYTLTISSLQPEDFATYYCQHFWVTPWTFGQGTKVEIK . Reported % Relative activity (WT antibody/test antibody)?
129
